FYI, the data here is from PubChem BioAssay AID1918994.

tested on: 292921-168-R-J2-PDC complex spheroid growth; assay: Anticancer human tumor 292921-168-R-J2-PDC patient-derived pancreatic carcinoma cell line growth inhibition [AhR]; settings: second compound 0.316 µM; first compound 10 µM; active = viability on the fitted dose curve at most 10% of control; inactive = the rest
Use one of these outcomes when replying: active, inactive

Hi team, can someone confirm the assay call for O=C(c1cc(Cc2n[nH]c(=O)c3ccccc23)ccc1F)N1CCN(C(=O)C2CC2)CC1 + Cc1cncc(-c2nc(NCCc3c[nH]c4ccccc34)c3ncn(C(C)C)c3n2)c1 ?
inactive

Hi team, can someone confirm the assay call for Nc1ccn(C2OC(CO)C(O)C2(F)F)c(=O)n1 (stereo not given) + CC(CO)NC(=O)c1cc(-c2ccc(Cl)cc2)nn(-c2cnn(C)c2)c1=O ?
active

Hi team, can someone confirm the assay call for COc1cccc2c1C(=O)c1c(O)c3c(c(O)c1C2=O)CC(O)(C(=O)CO)CC3OC1CC(N)C(O)C(C)O1 (stereo not given) + Cc1ccccc1N=Nc1ccc(NC(=O)c2ccnn2C)c(C)c1 ?
active

Hi team, can someone confirm the assay call for CC1(C)CCC(CN2CCN(c3ccc(C(=O)NS(=O)(=O)c4ccc(NCC5CCOCC5)c([N+](=O)[O-])c4)c(Oc4cnc5[nH]ccc5c4)c3)CC2)=C(c2ccc(Cl)cc2)C1 + Cc1cncc(-c2nc(NCCc3c[nH]c4ccccc34)c3ncn(C(C)C)c3n2)c1 ?
inactive

Hi team, can someone confirm the assay call for COc1ccc([C@@H](O)c2cc(-c3ncnc4cc(N5CCOCC5)ccc34)c(F)cc2Cl)nn1 + Cc1cncc(-c2nc(NCCc3c[nH]c4ccccc34)c3ncn(C(C)C)c3n2)c1 ?
inactive

====

test system: 292921-168-R-J2-PDC complex spheroid growth; assay: Anticancer human tumor 292921-168-R-J2-PDC cell line growth inhibition [AhR]; settings: second compound 0.1 µM; first compound 3.16 µM; active compounds read low;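 note: spheroids exposed to compounds for seven days after three days of growth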
ASSAY METRIC: viability, T/C (%)
Quick reminder: number only, in %, skip the unit.

As a guide, the following entries are already answered.
{"COMPOUND": "NS(=O)(=O)OCC1CC(n2ccc3c(NC4CCc5ccccc54)ncnc32)CC1O (centres undefined) + Cc1ccccc1N=Nc1ccc(NC(=O)c2ccnn2C)c(C)c1", "TARGET DESC": "292921-168-R-J2-PDC complex spheroid growth", "viability, T/C, %": 3.09}
{"COMPOUND": "COc1cccc2c1C(=O)c1c(O)c3c(c(O)c1C2=O)CC(O)(C(=O)CO)CC3OC1CC(N)C(O)C(C)O1 (centres undefined) + CC(CO)NC(=O)c1cc(-c2ccc(Cl)cc2)nn(-c2cnn(C)c2)c1=O", "TARGET DESC": "292921-168-R-J2-PDC complex spheroid growth", "viability, T/C, %": 3.72}
{"COMPOUND": "O=C(C=Cc1cccc(S(=O)(=O)Nc2ccccc2)c1)NO + CC(CO)NC(=O)c1cc(-c2ccc(Cl)cc2)nn(-c2cnn(C)c2)c1=O", "TARGET DESC": "292921-168-R-J2-PDC complex spheroid growth", "viability, T/C, %": 28.5}

Lab note: O=C(c1cc(Cc2n[nH]c(=O)c3ccccc23)ccc1F)N1CCN(C(=O)C2CC2)CC1 + Cc1ccccc1N=Nc1ccc(NC(=O)c2ccnn2C)c(C)c1 gave viability, T/C of 89.6

Lab note: Nc1ccccc1NC(=O)c1ccc(CNC(=O)OCc2cccnc2)cc1 + Cc1ccccc1N=Nc1ccc(NC(=O)c2ccnn2C)c(C)c1 gave viability, T/C of 27.3

Lab note: CC(C)c1c(-c2ccccc2)nc2c(C#N)c[nH]n2c1=O + Cc1ccccc1N=Nc1ccc(NC(=O)c2ccnn2C)c(C)c1 gave viability, T/C of 89.8

====

system: 292921-168-R-J2-PDC complex spheroid growth; test: Anticancer human tumor 292921-168-R-J2-PDC cell line growth inhibition [AhR]; settings: second compound 3.16 µM; first compound 0.01 µM; active compounds read low;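 note: spheroids exposed to compounds for seven days after three days of growth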
Measured viability, T/C by item
Quick reminder: number only, in %, skip the unit.

{"COMPOUND": "CC1COCCN1c1cc(-c2ccnn2C)c2ccnc(-c3ccn[nH]3)c2n1 (configuration not stated) + Cc1ccccc1N=Nc1ccc(NC(=O)c2ccnn2C)c(C)c1", "TARGET DESC": "292921-168-R-J2-PDC complex spheroid growth", "ENDPOINT UNIT": "%", "MEASURED RESULT": 68.1}
{"COMPOUND": "Cn1ncnc1C1c2n[nH]c(=O)c3cc(F)cc(c23)NC1c1ccc(F)cc1 (configuration not stated) + Cc1cncc(-c2nc(NCCc3c[nH]c4ccccc34)c3ncn(C(C)C)c3n2)c1", "TARGET DESC": "292921-168-R-J2-PDC complex spheroid growth", "ENDPOINT UNIT": "%", "MEASURED RESULT": 56.2}
{"COMPOUND": "CC1COCCN1c1cc(-c2ccnn2C)c2ccnc(-c3ccn[nH]3)c2n1 (configuration not stated) + Cc1cncc(-c2nc(NCCc3c[nH]c4ccccc34)c3ncn(C(C)C)c3n2)c1", "TARGET DESC": "292921-168-R-J2-PDC complex spheroid growth", "ENDPOINT UNIT": "%", "MEASURED RESULT": 64.1}
{"COMPOUND": "Nc1ncn(C2CC(O)C(CO)O2)c(=O)n1 (configuration not stated) + CC(CO)NC(=O)c1cc(-c2ccc(Cl)cc2)nn(-c2cnn(C)c2)c1=O", "TARGET DESC": "292921-168-R-J2-PDC complex spheroid growth", "ENDPOINT UNIT": "%", "MEASURED RESULT": 91}
{"COMPOUND": "Nc1ncn(C2CC(O)C(CO)O2)c(=O)n1 (configuration not stated) + Cc1ccccc1N=Nc1ccc(NC(=O)c2ccnn2C)c(C)c1", "TARGET DESC": "292921-168-R-J2-PDC complex spheroid growth", "ENDPOINT UNIT": "%", "MEASURED RESULT": 82.7}
{"COMPOUND": "Nc1ncn(C2CC(O)C(CO)O2)c(=O)n1 (configuration not stated) + Cc1cncc(-c2nc(NCCc3c[nH]c4ccccc34)c3ncn(C(C)C)c3n2)c1", "TARGET DESC": "292921-168-R-J2-PDC complex spheroid growth", "ENDPOINT UNIT": "%", "MEASURED RESULT": 71.9}
{"COMPOUND": "CC[C@@]1(O)C(=O)OCc2c1cc1n(c2=O)Cc2cc3c(CN(C)C)c(O)ccc3nc2-1 + CC(CO)NC(=O)c1cc(-c2ccc(Cl)cc2)nn(-c2cnn(C)c2)c1=O", "TARGET DESC": "292921-168-R-J2-PDC complex spheroid growth", "ENDPOINT UNIT": "%", "MEASURED RESULT": 72.5}
{"COMPOUND": "Cn1ncnc1C1c2n[nH]c(=O)c3cc(F)cc(c23)NC1c1ccc(F)cc1 (configuration not stated) + Cc1ccccc1N=Nc1ccc(NC(=O)c2ccnn2C)c(C)c1", "TARGET DESC": "292921-168-R-J2-PDC complex spheroid growth", "ENDPOINT UNIT": "%", "MEASURED RESULT": 75.1}

Here is another compound to look at.
Lab note: Cn1ncnc1C1c2n[nH]c(=O)c3cc(F)cc(c23)NC1c1ccc(F)cc1 (configuration not stated) + CC(CO)NC(=O)c1cc(-c2ccc(Cl)cc2)nn(-c2cnn(C)c2)c1=O gave viability, T/C of 92.9

====

tested on: 292921-168-R-J2-PDC complex spheroid growth; assay: Anticancer human tumor 292921-168-R-J2-PDC cell line growth inhibition [AhR]; details: second compound 0.316 µM; first compound 10 µM; active = viability on the fitted dose curve at most 10% of control; inactive = the rest;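 note: spheroids exposed to compounds for seven days after three days of growth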
Use one of these outcomes when replying: true (1) (active), false (0) (inactive)

{"MOLECULE": "COc1ccc([C@@H](O)c2cc(-c3ncnc4cc(N5CCOCC5)ccc34)c(F)cc2Cl)nn1 + Cc1ccccc1N=Nc1ccc(NC(=O)c2ccnn2C)c(C)c1", "CLASSIFICATION": "false (0)"}

Hi team, can someone confirm the assay call for CC1COCCN1c1cc(C2(S(C)(=N)=O)CC2)nc(-c2ccnc3[nH]ccc23)n1 (stereo unspecified) + Cc1ccccc1N=Nc1ccc(NC(=O)c2ccnn2C)c(C)c1 ?
false (0)

Hi team, can someone confirm the assay call for NS(=O)(=O)OCC1CC(n2ccc3c(NC4CCc5ccccc54)ncnc32)CC1O (stereo unspecified) + Cc1ccccc1N=Nc1ccc(NC(=O)c2ccnn2C)c(C)c1 ?
true (1)

Hi team, can someone confirm the assay call for CC1(C)CCC(CN2CCN(c3ccc(C(=O)NS(=O)(=O)c4ccc(NCC5CCOCC5)c([N+](=O)[O-])c4)c(Oc4cnc5[nH]ccc5c4)c3)CC2)=C(c2ccc(Cl)cc2)C1 + CC(CO)NC(=O)c1cc(-c2ccc(Cl)cc2)nn(-c2cnn(C)c2)c1=O ?
false (0)

Hi team, can someone confirm the assay call for COc1ccc([C@@H](O)c2cc(-c3ncnc4cc(N5CCOCC5)ccc34)c(F)cc2Cl)nn1 + CC(CO)NC(=O)c1cc(-c2ccc(Cl)cc2)nn(-c2cnn(C)c2)c1=O ?
false (0)

Hi team, can someone confirm the assay call for Nc1ccn(C2OC(CO)C(O)C2(F)F)c(=O)n1 (stereo unspecified) + Cc1cncc(-c2nc(NCCc3c[nH]c4ccccc34)c3ncn(C(C)C)c3n2)c1 ?
true (1)
